Below, each of the compounds is paired with its reported IC50 value.
Tested on: MIA PaCa-2 cells
Test Method Notes: In-vitro anti-proliferative activity in combination with gemcitabine (GMC) on MIA PaCa-2 cells
Format: cell-based
Test Conditions: Homo sapiens, MIA PaCa-2, 72 h, read-out: IC50 GMC (20 nM), anti-proliferative activity on MIA PaCa-2 cells, in combination with 20 nM gemcitabine, 72 h after dosing, ATP content
Observable: IC50 (nM)

compound="[2H]C([2H])([2H])N1Cc2cc(Nc3ncc4c(F)cn(-c5ccc(F)c(N=S(C)(C)=O)n5)c4n3)cc3c2[C@H](CCC3)C1 [Compound 68]" reported_relation=< observed_value=1
compound="[2H]C([2H])([2H])S(=O)(=Nc1nc(-n2cc(F)c3cnc(Nc4cc5c6c(c4)CN(C)C[C@H]6CCC5)nc32)ccc1F)C([2H])([2H])[2H] [Compound 70]" reported_relation== observed_value=1.1
compound="CN1Cc2cc(Nc3ncc4c(F)cn(-c5cccc(P(C)(C)=O)n5)c4n3)cc3c2C(CCC3)C1 (stereo not shown) [Compound 14]" reported_relation== observed_value=1.3
compound="CCN1Cc2cc(Nc3ncc4c(C)cn(-c5cccc(N=S(C)(C)=O)n5)c4n3)cc3c2C(CCC3)C1 (stereo not shown) [Compound 28]" reported_relation== observed_value=1.3
